# credit: patent US5756521A

Target: dopamine D-2 receptor (Rattus norvegicus)
Construct: homogenized limbic brain tissue; from tissue
Sequence (P61169 whole entry): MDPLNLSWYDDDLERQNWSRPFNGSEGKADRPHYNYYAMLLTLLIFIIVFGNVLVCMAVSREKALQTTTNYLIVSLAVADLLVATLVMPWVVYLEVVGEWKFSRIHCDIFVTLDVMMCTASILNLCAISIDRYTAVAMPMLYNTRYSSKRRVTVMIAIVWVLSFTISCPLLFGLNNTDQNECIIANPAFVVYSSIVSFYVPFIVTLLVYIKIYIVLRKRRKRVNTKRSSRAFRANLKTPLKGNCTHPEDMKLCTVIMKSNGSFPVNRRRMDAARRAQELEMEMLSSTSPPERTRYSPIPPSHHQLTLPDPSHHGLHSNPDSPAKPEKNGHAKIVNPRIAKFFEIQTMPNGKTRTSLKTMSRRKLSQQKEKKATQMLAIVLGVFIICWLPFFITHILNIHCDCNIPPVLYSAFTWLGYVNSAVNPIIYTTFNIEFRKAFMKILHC
Test: Dopamine D-2 receptor affinity, 3H-spiroperidol binding in homogenized limbic brain tissue
Settings: 3H-spiroperidol, limbic brain tissue homogenate; read-out: IC50 (nM), (Spiper.)
recorded-metric: IC50 (nM)

{"compound": "Oc1ccc2c(c1)OC(CNCc1ccccn1)CC2 (stereo not shown) [Example 1]", "recorded-result": 1230}
